Collected IC50 values appear next to each entry.
# targetOrTestSystem: UniProt:P04150
# Sequence (P04150 541-778 isoform P04150-3): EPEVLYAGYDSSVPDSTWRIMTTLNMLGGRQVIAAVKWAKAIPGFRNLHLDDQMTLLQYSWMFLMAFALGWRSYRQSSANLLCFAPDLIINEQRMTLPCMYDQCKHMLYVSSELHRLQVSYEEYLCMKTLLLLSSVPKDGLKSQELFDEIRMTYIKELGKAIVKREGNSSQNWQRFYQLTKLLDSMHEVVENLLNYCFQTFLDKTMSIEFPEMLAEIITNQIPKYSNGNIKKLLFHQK
# experimentalProtocol: Functional assay of glucocorticoid receptor antagonism (Gal4-GR-LBD luciferase reporter, COS-7 cells)
# statedConditions: antagonism of dexamethasone (10 nM)-induced GR activity
# Description: The GR antagonist activity of the compounds is determined in a mammalian two hybrid reporter system. The ligand binding domain of GR (GR-LBD, sequence encoding amino acid 541-778) is fused to the DNA binding domain of the yeast Gal4 gene. The GR gene is cloned from a human lung cDNA library with PCR. The assay is performed in 384 well plates: COS-7 cells (ATCC) are transfected with expression vectors for Gal-4-GR-LBD and a luciferase reporter vector containing Gal4 binding sequence (pG5-Luc). […]

Field: example entries. Status: answers known.
Form: molecule = CC(=O)N1CC2(OC1(C)C)c1ccccc1C=Cc1ccccc12 [SOXS-3] ; IC50 = 1 to 10 µM

Form: molecule = COc1ccc(C23CCC(=O)N2CC2(O3)c3ccccc3C=Cc3ccccc32)cc1 (centres unmarked) [FRS-5] ; IC50 = > 10 µM

Form: molecule = CC(=O)N1CC2(OC13CCCCC3)c1ccccc1C=Cc1ccccc12 [SOXS-6] ; IC50 = > 10 µM

Further cases:
Form: molecule = CC12CCC(=O)N1CC1(O2)c2ccccc2CCc2ccccc21 (single isomer, unassigned) [FRS-13 (Chiral Synthesis)] ; IC50 = > 10 µM

Form: molecule = Oc1ccc(C2=NCC3(O2)c2ccccc2C=Cc2ccccc23)cc1 [OXS-1] ; IC50 = > 10 µM

###

Collected pIC50 values appear next to each entry.
# targetOrTestSystem: Progesterone Receptor (PR) (Homo sapiens, UniProt P06401)
# Sequence (P06401 679-933 limits assumed): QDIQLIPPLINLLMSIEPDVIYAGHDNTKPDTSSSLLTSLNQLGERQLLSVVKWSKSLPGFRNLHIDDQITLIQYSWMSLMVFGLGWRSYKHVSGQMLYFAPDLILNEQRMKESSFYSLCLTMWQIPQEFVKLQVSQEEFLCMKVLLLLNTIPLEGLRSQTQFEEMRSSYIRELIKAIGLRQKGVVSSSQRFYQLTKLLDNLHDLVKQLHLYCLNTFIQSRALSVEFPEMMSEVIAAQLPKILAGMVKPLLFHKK
# experimentalProtocol: Functional assay of progesterone receptor antagonism (progesterone-induced alkaline phosphatase activity in T-47D cells)
# statedConditions: antagonism of progesterone (3 nM)-induced PR activity, read-out: PR-T47D IC50
pIC50: −log10 of the molar value.

Form: compound = O=C1CCC2(C3CC3)OC3(CN12)c1ccccc1C=Cc1ccccc13 (stereo not shown) [FRS-10] ; pIC50 = < 5.00

Form: compound = O=C1CCC2(c3ccccc3)OC3(CN12)c1ccccc1C=Cc1ccccc13 (stereo not shown) [FRS-2] ; pIC50 = < 5.00

Form: compound = CC12CCCC(=O)N1CC1(O2)c2ccccc2CCc2ccccc21 (stereo not shown) [FRS-14] ; pIC50 = 5.00 to 6.00

Further cases:
Form: compound = CC12CCC(=O)N1CC1(O2)c2ccccc2C=Cc2ccccc21 (stereo not shown) [FRS-1] ; pIC50 = < 5.00

Form: compound = CC12CCC(=O)N1CC1(O2)c2ccccc2CCc2ccccc21 (single isomer, unassigned) [FRS-13 (Chiral Synthesis)] ; pIC50 = < 5.00

Form: compound = CC12CCC(=O)N1CC1(O2)c2ccccc2C=Cc2ccccc21 (single isomer, unassigned) [FRS-1 (Chiral Synthesis)] ; pIC50 = < 5.00

Form: compound = CC(=O)N1CC2(OC13CCCCC3)c1ccccc1C=Cc1ccccc12 [SOXS-6] ; pIC50 = 6.00 to 7.00
